Reported pEC50 values for a set of binders
Molecular target: T1, CRH (CT-Biotin) (human and mouse, biotin on the added C-terminal K (-K-Biotin))
T1 construct: also called Peptide 4 (CRH-Biotin); C-terminally biotinylated corticotropin-releasing hormone
T1 peptide: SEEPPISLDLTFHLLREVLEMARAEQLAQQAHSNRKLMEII
Experiment: ELISA, C-terminally biotinylated CRH on streptavidin-coated plate
pEC50: −log10 of the molar value.
Result type: pEC50

{"Binder": "PR004289 (antibody, human IgG1, kappa, V domains shown, Expressed recombinantly with human IgG1 wildtype Fc; also called Hybridoma Clone 16g2; Series 1 mAb) VH: EVQLVESGGVLVQPGGSLRLSCAASGFIFSSYWMTWVRQAPGKGLEWVANIKQDGSEKYYVDSVKGRFTISRDNAKNSLFLQMNSLRAEDTAVYYCARTLIFDYWGQGTLVTVSS VL: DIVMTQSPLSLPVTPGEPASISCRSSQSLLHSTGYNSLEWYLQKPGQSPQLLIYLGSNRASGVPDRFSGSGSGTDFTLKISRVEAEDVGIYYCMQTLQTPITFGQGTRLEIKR", "Result type": "pEC50", "Data value": 10.64}
{"Binder": "PR301788 (antibody, human IgG1, kappa, V domains shown, Mouse variable domains, expressed recombinantly with human IgG1 wildtype Fc; also called Series 5 mAb) VH: EMKLEESGGGLVQPGGSMKLSCVASGFTFSNYWMNWVRQSPEKGLEWVAEIRLKSNNYATHYAESVKGRFTISRDDSKSSVYLQMNNLRAEDTGIYYCTIGTLVYWGQGTLVTVSA VL: DIVLTQSPASLAVSLGQRATISCRASQSVSTSTYNYMHWFQQKPGQPPKLLIKFASNLESGVPARFSGSGSGTDFTLNIHPVEEEDTATFYCQHSWEIPYTFGGGTKLEIKR", "Result type": "pEC50", "Data value": 10.96}
{"Binder": "PR302334 (antibody, human IgG1, kappa, V domains shown, Mouse variable domains, expressed recombinantly with human IgG1 wildtype Fc; also called Series 9 mAb) VH: EVKLVESGGGLVKPGGSLKLSCAASGFTFSTYAMSWVRQTPEKRLEWVASIRSGGTTYYPDSVKGRFTISRDNARNILYLQMSSLRSEDTAIYYCTRGIDWGQGTLVTVSA VL: NIVMTQTPKFLLVSAGDRITITCKASQSVNNDVAWYQQKPGQSPKLLIYYASNRYTGVPDRFTGSGYGTDFTFTISTVQAEDLAVYFCQQDYSSWTFGGGTNLEIKR", "Result type": "pEC50", "Data value": 10.68}
{"Binder": "PR301790 (antibody, human IgG1, kappa, V domains shown, Mouse variable domains, expressed recombinantly with human IgG1 wildtype Fc; also called Series 5 mAb) VH: EMKLEESGGGLVQPGGSMKLSCVASGFTFSNYWMNWVRQSPEKGLEWVAEIRLKSNNYATHYAESVKGRFTISRDDSKSSVYLQMNNLRAEDTGIYYCTIGTLVYWGQGTLVTVSA VL: DIVLTQSPASLAVSLGQRATISCRASQSVSTSSYNYMHWYQQKPGQPPKLLIKFASNLESGVPARFSGSGSGTDFTLNIHPVEEEDTATFYCQHSWEIPYTFGGGTKLEIKR", "Result type": "pEC50", "Data value": 10.72}
{"Binder": "PR302309 (antibody, human IgG1, kappa, V domains shown, Mouse variable domains, expressed recombinantly with human IgG1 wildtype Fc; also called Series 7 mAb) VH: QIQLVQSGPELKKPGETVKISCKASGYTFTNYGMNWVKQAPGKVLKWMGWINTYTGEPIYTDDFKGRFAFSLETSASTAYLQINNLKNEDTATYFCSRSTMITTGGVFAYWGQGTLVTVSA VL: DVLMAQTPLSLPVSLGDQASISCRSSQTIVHSDGNTYLEWYLQKPGQSPKLLIYKVSNRFSGVPDRFSGSGSGTDFTLKISRVEAEDLGVYYCFQGSHVPWTFGGGTKLEIKR", "Result type": "pEC50", "Data value": 10.82}
